Target: GST-RIPK1 (recombinant GST-RIPK1 kinase domain (residues 1-327)) (Homo sapiens, UniProt Q13546)
Construct: recombinant GST-RIPK1 kinase domain (residues 1-327) enzyme
Sequence (Q13546 1-327): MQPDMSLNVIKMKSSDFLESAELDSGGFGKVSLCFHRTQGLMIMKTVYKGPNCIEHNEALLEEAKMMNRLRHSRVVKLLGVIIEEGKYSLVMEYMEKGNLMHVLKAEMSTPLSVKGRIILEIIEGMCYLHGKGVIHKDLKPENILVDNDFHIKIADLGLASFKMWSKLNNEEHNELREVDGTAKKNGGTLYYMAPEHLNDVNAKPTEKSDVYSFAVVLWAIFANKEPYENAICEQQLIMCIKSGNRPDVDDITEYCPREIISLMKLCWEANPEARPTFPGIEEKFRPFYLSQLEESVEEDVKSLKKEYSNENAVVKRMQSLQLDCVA
Assay: RIPK1-ADP-Glo enzymatic assay
Settings: 25 nM GST-RIPK1, 300 μM ATP, 3 μM dephosphorylated-MBP; 30 minutes pre-incubation, 150 minutes reaction; ten-point titration
measurement_label: pIC50
On this scale, pIC50 is minus log10 of a concentration expressed in M (mol/L).

[[record]]
smi = "N#Cc1ccnc(N2CCC(F)(C(=O)N3C[C@@H]4C[C@H]3c3cncc(C#N)c3O4)CC2)n1"
measurement_label = "pIC50"
value_measured = 7.52

[[record]]
smi = "N#Cc1cncc2c1O[C@H]1C[C@@H]2N(C(=O)C2(C(F)F)CCCC2)C1"
measurement_label = "pIC50"
value_measured = 7.29

[[record]]
smi = "C#Cc1cncc2c1O[C@H]1C[C@@H]2N(C(=O)C23CCC(C(F)(F)F)(CC2)C3)C1"
measurement_label = "pIC50"
value_measured = 7.42


Given the entry COc1ccc(C#Cc2cncc3c2O[C@H]2C[C@@H]3N(C(=O)C(C)(C)C(F)F)C2)cn1 , report its measured pIC50. 7.72
